Measured target: NRAS Q61K (Homo sapiens (Human), UniProt P01111+P62937, Q61K)
Sequence (P01111 whole entry Q61K): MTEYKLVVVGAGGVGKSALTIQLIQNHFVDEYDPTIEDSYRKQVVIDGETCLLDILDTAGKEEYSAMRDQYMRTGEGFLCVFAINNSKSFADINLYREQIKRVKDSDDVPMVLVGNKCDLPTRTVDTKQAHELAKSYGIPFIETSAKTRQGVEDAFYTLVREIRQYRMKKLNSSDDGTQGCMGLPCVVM
Sequence (P62937 whole entry): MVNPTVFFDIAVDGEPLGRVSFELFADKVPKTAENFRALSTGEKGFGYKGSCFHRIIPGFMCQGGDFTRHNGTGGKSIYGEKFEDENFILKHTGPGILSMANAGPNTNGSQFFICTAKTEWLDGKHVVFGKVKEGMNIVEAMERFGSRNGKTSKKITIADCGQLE
Experiment notes: Ras-Raf (BRAF RBD) disruption / FRET / MOA assay, NRAS Q61K
Assay type: biochemical
Condition description: NRAS Q61K; Ras-Raf disruption/FRET/MOA assay; read-out: IC50* NRAS Q61K FRET data
pIC50: −log10 of the molar value.
Experimental endpoint: pIC50

Compound	Measured target	pIC50
C=CC(=O)N1CCO[C@H]2CN(C(=O)N(C)[C@H](C(=O)N[C@H]3Cc4nc(n(C)n4)-c4ccc5c(c4)c(c(-c4cccnc4[C@H](C)OC)n5CC(F)(F)F)CC(C)(C)COC(=O)[C@@H]4CCCN(N4)C3=O)C(C)C)C[C@H]21 (atropisomer, axis not shown)	NRAS Q61K (Homo sapiens (Human), UniProt P01111+P62937, Q61K)	6.00 to 7.00

Readout pIC50 for CC#CC(=O)N1CCC(C(=O)N(C)[C@H](C(=O)N[C@H]2Cc3nc(cs3)-c3ccc4c(c3)c(c(-c3cccnc3[C@H](C)OC)n4CC)CC(C)(C)COC(=O)[C@@H]3CCCN(N3)C2=O)C(C)C)C1 (atropisomer, axis not shown) , test system NRAS Q61K (Homo sapiens (Human), UniProt P01111+P62937, Q61K), was 5.00 to 6.00

Summary line: CCn1c(-c2cccnc2[C@H](C)OC)c2c3cc(ccc31)-c1cccc(c1)C[C@H](NC(=O)[C@H](C(C)C)N(C)C(=O)[C@H]1CCN(C(=O)C#CC(C)(C)N(C)C)C1)C(=O)N1CCC[C@H](N1)C(=O)OCC(C)(C)C2 (atropisomer, axis not shown) , NRAS Q61K (Homo sapiens (Human), UniProt P01111+P62937, Q61K), reported pIC50 = 5.00 to 6.00

Record C=CC(=O)N1C[C@@H](N(C)C(=O)N(C)[C@H](C(=O)N[C@H]2Cc3nc(cs3)-c3ccc4c(c3)c(c(-c3cccnc3[C@H](C)OC)n4CC)CC(C)(C)COC(=O)[C@@H]3CCCN(N3)C2=O)C(C)C)[C@@H](C)C1 (atropisomer, axis not shown) / NRAS Q61K (Homo sapiens (Human), UniProt P01111+P62937, Q61K), pIC50 recorded as 6.00 to 7.00
